- System: Streptococcus pyogenes
- protocol.details: Antibacterial activity against Streptococcus pyogenes 8668 by broth microdilution method
- Format: functional
A collection of compounds and their measured MIC

CC[C@H]1OC(=O)[C@H](C)C(=O)[C@H](C)[C@@H](O[C@@H]2O[C@H](C)C[C@H](N(C)C)[C@H]2O)[C@](C)(OC)C[C@@H](C)C(=O)[C@H](C)[C@@H]2[C@@H]1OC(=O)N2CCCCc1cnc(-c2cccnc2)s1 :: ≤ 0.05 µg/mL

Then this compound:
Note MIC for the compound shown: CC[C@H]1OC(=O)[C@H](C)C(=O)[C@H](C)[C@@H](O[C@@H]2O[C@H](C)C[C@H](N(C)C)[C@H]2O)[C@](C)(OC)C[C@@H](C)C(=O)[C@H](C)[C@@H]2[C@@H]1OC(=O)N2CCCCn1cnc(-c2ccc(OC)nc2)c1
≤ 0.05 µg/mL

---

- Tested on: Haemophilus influenzae
- protocol.details: Antibacterial activity against Haemophilus influenzae 2762 by broth microdilution method
- Assay type: functional
A collection of molecules and their measured MIC
State the answer as a number, implicitly in µg/mL.

CC[C@H]1OC(=O)[C@H](C)C(=O)[C@H](C)[C@@H](O[C@@H]2O[C@H](C)C[C@H](N(C)C)[C@H]2O)[C@](C)(OC)C[C@@H](C)C(=O)[C@H](C)[C@@H]2[C@@H]1OC(=O)N2CCCCc1ccc(-c2cncnc2)s1 :: 3.13
CC[C@H]1OC(=O)[C@H](C)C(=O)[C@H](C)[C@@H](O[C@@H]2O[C@H](C)C[C@H](N(C)C)[C@H]2O)[C@](C)(OC)C[C@@H](C)C(=O)[C@H](C)[C@@H]2[C@@H]1OC(=O)N2CCCCc1ncc(-c2ccccc2)s1 :: 3.13

Note MIC for the molecule shown: CC[C@H]1OC(=O)[C@H](C)C(=O)[C@H](C)[C@@H](O[C@@H]2O[C@H](C)C[C@H](N(C)C)[C@H]2O)[C@](C)(OC)C[C@@H](C)C(=O)[C@H](C)[C@@H]2[C@@H]1OC(=O)N2CCCCn1cnc(-c2cccnc2)c1
0.78

Note MIC for the molecule shown: CC[C@H]1OC(=O)[C@H](C)C(=O)[C@H](C)[C@@H](O[C@@H]2O[C@H](C)C[C@H](N(C)C)[C@H]2O)[C@](C)(OC)C[C@@H](C)C(=O)[C@H](C)[C@@H]2[C@@H]1OC(=O)N2CCCCc1cnc2ccccc2c1
1.56

Note MIC for the molecule shown: CC[C@H]1OC(=O)[C@H](C)C(=O)[C@H](C)[C@@H](O[C@@H]2O[C@H](C)C[C@H](N(C)C)[C@H]2O)[C@](C)(OC)C[C@@H](C)C(=O)[C@H](C)[C@@H]2[C@@H]1OC(=O)N2CCCCn1cnc(-c2ccc(OC)nc2)c1
1.56

Note MIC for the molecule shown: CC[C@H]1OC(=O)[C@H](C)C(=O)[C@H](C)[C@@H](O[C@@H]2O[C@H](C)C[C@H](N(C)C)[C@H]2O)[C@](C)(OC)C[C@@H](C)C(=O)[C@H](C)[C@@H]2[C@@H]1OC(=O)N2CCCCc1ncc(-c2cccc(N)c2)s1
1.56

Note MIC for the molecule shown: CC[C@H]1OC(=O)[C@H](C)C(=O)[C@H](C)[C@@H](O[C@@H]2O[C@H](C)C[C@H](N(C)C)[C@H]2O)[C@](C)(OC)C[C@@H](C)C(=O)[C@H](C)[C@@H]2[C@@H]1OC(=O)N2CCCCc1cnc(-c2cccnc2)s1
1.56

Note MIC for the molecule shown: CC[C@H]1OC(=O)[C@H](C)C(=O)[C@H](C)[C@@H](O[C@@H]2O[C@H](C)C[C@H](N(C)C)[C@H]2O)[C@](C)(OC)C[C@@H](C)C(=O)[C@H](C)[C@@H]2[C@@H]1OC(=O)N2CCCCn1cnc(-c2ccc(F)nc2)c1
0.78

Note MIC for the molecule shown: CC[C@H]1OC(=O)[C@H](C)C(=O)[C@H](C)[C@@H](O[C@@H]2O[C@H](C)C[C@H](N(C)C)[C@H]2O)[C@](C)(OC)C[C@@H](C)C(=O)[C@H](C)[C@@H]2[C@@H]1OC(=O)N2CCCCn1cnc(-c2ccc(C)nc2)c1
1.56

Note MIC for the molecule shown: CC[C@H]1OC(=O)[C@H](C)C(=O)[C@H](C)[C@@H](O[C@@H]2O[C@H](C)C[C@H](N(C)C)[C@H]2O)[C@](C)(OC)C[C@@H](C)C(=O)[C@H](C)[C@@H]2[C@@H]1OC(=O)N2CCCC(C)(C)n1cnc(-c2cccnc2)c1
1.56

Note MIC for the molecule shown: CC[C@H]1OC(=O)[C@H](C)C(=O)[C@H](C)[C@@H](O[C@@H]2O[C@H](C)C[C@H](N(C)C)[C@H]2O)[C@](C)(OC)C[C@@H](C)C(=O)[C@H](C)[C@@H]2[C@@H]1OC(=O)N2CCCCn1ccc2ncccc21
0.78

Note MIC for the molecule shown: CC[C@H]1OC(=O)[C@H](C)C(=O)[C@H](C)[C@@H](O[C@@H]2O[C@H](C)C[C@H](N(C)C)[C@H]2O)[C@](C)(OC)C[C@@H](C)C(=O)[C@H](C)[C@@H]2[C@@H]1OC(=O)N2CCCCn1cnc(-c2ccc(Cl)nc2)c1
1.56

Note MIC for the molecule shown: CC[C@H]1OC(=O)[C@H](C)C(=O)[C@H](C)[C@@H](O[C@@H]2O[C@H](C)C[C@H](N(C)C)[C@H]2O)[C@](C)(OC)C[C@@H](C)C(=O)[C@H](C)[C@@H]2[C@@H]1OC(=O)N2CCCC(C)(C)n1cnc2ncccc21
1.56

Note MIC for the molecule shown: CC[C@H]1OC(=O)[C@H](C)C(=O)[C@H](C)[C@@H](O[C@@H]2O[C@H](C)C[C@H](N(C)C)[C@H]2O)[C@](C)(OC)C[C@@H](C)C(=O)[C@H](C)[C@@H]2[C@@H]1OC(=O)N2CCCCc1ccc(-c2cccnc2)s1
3.13

Note MIC for the molecule shown: CC[C@H]1OC(=O)[C@H](C)C(=O)[C@H](C)[C@@H](O[C@@H]2O[C@H](C)C[C@H](N(C)C)[C@H]2O)[C@](C)(OC)C[C@@H](C)C(=O)[C@H](C)[C@@H]2[C@@H]1OC(=O)N2CCCCn1ccc2c(N)cccc21
1.56

---

- Tested on: Staphylococcus aureus
- protocol.details: Antibacterial activity against Staphylococcus aureus 29213 by broth microdilution method
- Type: functional
- condition.details: ATCC29213
A collection of compounds and their measured MIC
State the answer as a number, implicitly in µg/mL.

Please review the following examples before continuing.
CC[C@H]1OC(=O)[C@H](C)C(=O)[C@H](C)[C@@H](O[C@@H]2O[C@H](C)C[C@H](N(C)C)[C@H]2O)[C@](C)(OC)C[C@@H](C)C(=O)[C@H](C)[C@@H]2[C@@H]1OC(=O)N2CCCCn1ccc2c(N)cccc21 :: 0.2
CC[C@H]1OC(=O)[C@H](C)C(=O)[C@H](C)[C@@H](O[C@@H]2O[C@H](C)C[C@H](N(C)C)[C@H]2O)[C@](C)(OC)C[C@@H](C)C(=O)[C@H](C)[C@@H]2[C@@H]1OC(=O)N2CCCCc1ncc(-c2ccccc2)s1 :: 0.78
CC[C@H]1OC(=O)[C@H](C)C(=O)[C@H](C)[C@@H](O[C@@H]2O[C@H](C)C[C@H](N(C)C)[C@H]2O)[C@](C)(OC)C[C@@H](C)C(=O)[C@H](C)[C@@H]2[C@@H]1OC(=O)N2CCCCn1cnc(-c2ccc(Cl)nc2)c1 :: 0.2

Note MIC for the compound shown: CC[C@H]1OC(=O)[C@H](C)C(=O)[C@H](C)[C@@H](O[C@@H]2O[C@H](C)C[C@H](N(C)C)[C@H]2O)[C@](C)(OC)C[C@@H](C)C(=O)[C@H](C)[C@@H]2[C@@H]1OC(=O)N2CCCCn1ccc2ccccc21
0.4

---

- System: Enterococcus faecalis
- protocol.details: Antibacterial activity against Enterococcus faecalis 29212 by broth microdilution method
- Type: functional
readout.name: MIC

Please review the following examples before continuing.
CC[C@H]1OC(=O)[C@H](C)C(=O)[C@H](C)[C@@H](O[C@@H]2O[C@H](C)C[C@H](N(C)C)[C@H]2O)[C@](C)(OC)C[C@@H](C)C(=O)[C@H](C)[C@@H]2[C@@H]1OC(=O)N2CCCCn1cnc2cccnc21 :: ≤ 0.05 µg/mL
CC[C@H]1OC(=O)[C@H](C)C(=O)[C@H](C)[C@@H](O[C@@H]2O[C@H](C)C[C@H](N(C)C)[C@H]2O)[C@](C)(OC)C[C@@H](C)C(=O)[C@H](C)[C@@H]2[C@@H]1OC(=O)N2CCCCn1ccc2ncccc21 :: 0.1 µg/mL
CC[C@H]1OC(=O)[C@H](C)C(=O)[C@H](C)[C@@H](O[C@@H]2O[C@H](C)C[C@H](N(C)C)[C@H]2O)[C@](C)(OC)C[C@@H](C)C(=O)[C@H](C)[C@@H]2[C@@H]1OC(=O)N2CCCCc1ncc(-c2cccc(N)c2)s1 :: 0.2 µg/mL

Identify measured MIC obtained with Enterococcus faecalis for CC[C@H]1OC(=O)[C@H](C)C(=O)[C@H](C)[C@@H](O[C@@H]2O[C@H](C)C[C@H](N(C)C)[C@H]2O)[C@](C)(OC)C[C@@H](C)C(=O)[C@H](C)[C@@H]2[C@@H]1OC(=O)N2CCCCn1cnc(-c2cccnc2)c1 .
0.1 µg/mL

Identify measured MIC obtained with Enterococcus faecalis for CC[C@H]1OC(=O)[C@H](C)C(=O)[C@H](C)[C@@H](O[C@@H]2O[C@H](C)C[C@H](N(C)C)[C@H]2O)[C@](C)(OC)C[C@@H](C)C(=O)[C@H](C)[C@@H]2[C@@H]1OC(=O)N2CCCCn1cnc(-c2ccc(F)nc2)c1 .
≤ 0.05 µg/mL
